Target: hGOAT (Homo sapiens, UniProt Q96T53)
Construct: made in house; host or cells: Sf9 insect cells (membrane fraction)
Sequence (Q96T53 whole entry): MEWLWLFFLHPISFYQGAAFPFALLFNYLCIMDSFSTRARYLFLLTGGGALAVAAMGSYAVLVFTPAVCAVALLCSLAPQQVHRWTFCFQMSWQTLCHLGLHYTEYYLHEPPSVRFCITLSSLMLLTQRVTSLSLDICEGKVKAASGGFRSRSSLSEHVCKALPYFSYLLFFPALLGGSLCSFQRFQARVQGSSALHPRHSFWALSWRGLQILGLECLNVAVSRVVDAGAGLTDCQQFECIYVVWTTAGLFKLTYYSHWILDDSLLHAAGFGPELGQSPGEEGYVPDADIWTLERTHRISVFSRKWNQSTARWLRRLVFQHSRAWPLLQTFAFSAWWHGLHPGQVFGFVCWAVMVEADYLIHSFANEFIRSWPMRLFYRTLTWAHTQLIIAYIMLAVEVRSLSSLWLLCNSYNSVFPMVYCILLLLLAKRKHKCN
Assay: fluorescence-based in vitro hGOAT activity assay (ghrelin octanoylation, HPLC readout)
Format: biochemical
Settings: unit inferred; read-out: IC50, inhibition of hGOAT
recorded.endpoint: IC50 (µM)
Give bare numbers, in µM.

C[C@@]12CCC[C@H]1[C@@H]1CC[C@H]3CC(=O)C=C[C@]3(C)[C@H]1CC2 :: 170

Returns the measured IC50 for the input compound. Input: `O=C1CCCC=C1Br`
500

* * *

Target: hGOAT (Homo sapiens)
Construct: made in house; host or cells: Sf9 insect cells (membrane fraction)
Assay: fluorescence-based in vitro hGOAT activity assay (ghrelin octanoylation, HPLC readout)
Type: biochemical
Conditions: hGOAT activity, individual trials; read-out: IC50 (individual trials)
recorded.endpoint: pIC50
One number for each entry, as −log10 of the molar value.

Some compounds with known pIC50 results, for comparison:
C[C@@]12CCC[C@H]1[C@@H]1CC[C@H]3CC(=O)C=C[C@]3(C)[C@H]1CC2 :: 3.70
C[C@@]12CCC[C@H]1[C@@H]1CC[C@H]3CC(=O)C(Br)=C[C@]3(C)[C@H]1CC2 :: 4.08

Could you now look at the following compound, please?
Returns the measured pIC50 for the input compound. Input: `C[C@@]12CCC[C@H]1[C@@H]1CC[C@H]3CC(=O)C(C#N)=C[C@]3(C)[C@H]1CC2`
5.15
